Please provide measured inhibition at 2 ppm for the entries that follow.
- System: Collectotrichum graminicola
- Test Name: Fungal growth inhibition assay, C. graminicola
- Assay type: cell-based
- Run Conditions: Colletotrichum graminicola; 2 ppm, 48 h
Your answer is read as %, so omit the unit and give the number.

Ask: Consider the compound "O=C(O)Cc1ccc(-c2nc3ccccc3c(-c3ccccc3)c2Cl)s1" and give its measured inhibition at 2 ppm.
Result: 0

Ask: For "O=C(O)Cc1ccc(-c2cc(-c3ccccc3)c3ccccc3n2)s1" , what is its reported inhibition at 2 ppm?
Result: 0

Ask: What inhibition at 2 ppm value was documented for this compound, "COc1ccc(-c2cc(-c3ccccc3)c3ccccc3n2)cc1OC" ?
Result: 34

Ask: Any idea what inhibition at 2 ppm was measured for "NC(=O)Cc1ccc(-c2nc3ccccc3c(-c3ccccc3)c2Cl)s1" ?
Result: 44

Ask: // query inhibition at 2 ppm value for entry "NC(=O)Cc1ccc(-c2cc(-c3ccccc3)c3ccccc3n2)s1"
Result: 31

Ask: Please report the recorded inhibition at 2 ppm for "COC(=O)Cc1ccc(-c2cc(-c3ccccc3)c3ccccc3n2)s1" .
Result: 6

Ask: Field request: inhibition at 2 ppm | item: "COc1ccc(-c2cc(-c3ccccc3)c3ccccc3n2)cc1"
Result: 35
